Target: T1, human FcγRIIIa V158 allotype, extracellular domain (human, UniProt P08637 17-208)
T1 construct: extracellular domain; expressed in HEK-EBNA cells; also called hFcγRIIIa; CD16; not shown: Flag10His tag of the vector
T1 sequence (P08637 17-208 F176V): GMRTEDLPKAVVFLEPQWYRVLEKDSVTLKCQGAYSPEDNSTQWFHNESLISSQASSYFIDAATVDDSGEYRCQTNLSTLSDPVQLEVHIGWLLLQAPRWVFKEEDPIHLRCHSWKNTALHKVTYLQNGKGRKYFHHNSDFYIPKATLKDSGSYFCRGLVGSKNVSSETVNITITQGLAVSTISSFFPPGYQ
Assay: RIA, 35S-labelled Fc on coated receptor
test-readout: RIA for RIIIa (V158) (fold over wild-type)
Provide only the numeric value, understood in fold over wild-type.

Some entries whose results are on file:
- Fc polypeptide variant 121F02 (Fcγ1, in vitro translated) (other, Fc region only, in vitro translated with 35S-methionine for RIA) AHTCPPCPAPELLGGPSVFLSPPKLKDTLMISRTPEVTCVVVVASHEDPEVKFNWYVDGVEVHNAKTKPREEQYNSTYRVVSVLTVLHQDWLNGKEYKCKVSNKALPAPIEKTISKAKGQPREPQVYTLPPSREEMTKNQVSLTCLVKGFYPSDIAVEWENNGQPENNYKTTPPVLDSDGSFFLYSKLIVDKSRWQQGNVFSCSVMHEALHNHYTQKSLSLSPGK: 1.7
- Fc polypeptide variant 126G05 (Fcγ1, in vitro translated) (other, Fc region only, in vitro translated with 35S-methionine for RIA) AHTCPPCPAPELLGGPSVLLFPPKPKDTLMISRTPEVTCVVVDVSHEDPEAKFNWYVDGVEVHNAKTKPREEQYNSTYRVVSVLTVLHQDWLNGKEYKCKVSNKALPAPIEKTISKAQGQPREPQVYTLPPSREEMTKNQVSLTCLVKGFYPSDIAVEWESNGQPENNYKTTPPVLDSDGSFFLYSKLTVDKSRWQQGNVFSCSVMHEALHNHYTQKSFSLSPGK: 1.8
- Fc polypeptide variant 125B01 (Fcγ1, in vitro translated) (other, Fc region only, in vitro translated with 35S-methionine for RIA) ANTCPPCPAPELLGGPSVFLLPPKPKDTLMISRTPEVTCVVVDVSHEDPEVKFNWYVDGVEVHNAKTKPREEQYNSTYRVVSVLTVLHQDWLNGKEYKCKVSNKALPAPIEKTISKAKGQPREPQVYTLPPSREEMTKNQVSLTCLVKGFYPSDIAVEWESNGQPENNYKATPPVLDSDGSFFLYSKLTVDKSRWQQGNVFSCSVMHEALPNHYTQKSLSLSPGK: 1.3
- Fc polypeptide variant 136D04b (Fcγ1, in vitro translated) (other, Fc region only, in vitro translated with 35S-methionine for RIA) AHTCPPCPAPELLGGPSVFLFPPKPKDTLMISRTPEVTCVVVDVSHEDPEVKFNWYVDGVEVHNAKTKPREEQYNSTYRVVSVLTVLHQDWLNGKEYKCKVSNKALPAPIEKIISKAKGQPREPQVYTLPPSREEMTKNQVSLTCLVKGFYPSDIAVEWESNGQPENNYKTTPPVLDSDGSFFLYSKLTVDMSRWQQGNVFSCSVMHEALHNHYTQKSLSLSPGK: 2.3
- Fc polypeptide variant 110B09 (Fcγ1, in vitro translated) (other, Fc region only, in vitro translated with 35S-methionine for RIA) AHTCPPCPAPELLGGPSVFLFPPKPKDTLMISRTPEVTCVVVDVSHEDPEVKFDWYVDGVEVHNAKTKPQEEQYNSTYRVVSALTVLHQDWLNGKEYKCKVSNKALPAPIEKTISKAKGQPREPQVYTLPPSREEMTKNQVSLTCLVKGFYPSDVAVEWESNGQPENNYKTAPPVLDSDGSFFLYSKLTADKSRWQQGNVFSCSVMHEALHNHYTQESLSLSPGK: 4.4

Value of RIA for RIIIa (V158) reported for the binder Fc polypeptide variant 110H08 (Fcγ1, in vitro translated) (other, Fc region only, in vitro translated with 35S-methionine for RIA) AHTCPPCPAPELLGGPSVFLFLPEPKDTLMISRTPEVTCVVVDVSHEDPEVKFNWYVDGVEVHNAKTKPREEQYNSTYRVVSVLTVLHQDWLNGKEYKCKVSNKALPAPIEKTISKAKGQPREPQVYTLPPSREEMTKNQVSLTCLVKGFYPSDIAVEWESNGQPENNYKTTPPVLGSDGSFFLYSRLTVDKSRWQQGNVFSCSVMHEALHNHYTQKSLSLSPGK is 2.7

Value of RIA for RIIIa (V158) reported for the binder Fc polypeptide variant 125E05 (Fcγ1, in vitro translated) (other, Fc region only, in vitro translated with 35S-methionine for RIA) AHTCPPCPAPELLGGPSAFLFPPKPKDTLMISRTPEVTCVVVDVGHEDPEVKFNWYVDGVEVHNAKTKPREEQYNSTYRVVSVLTVLHQDWLNGKEYKCKVSNKALPAPIEKTISKAKEQPREPQVYTLPPSRGEMTKNQVSLTCLVKGFYPSDIAVEWESNGQPENNYKTTPPVLDSDGSFFLYSKLTVDKSRWQQGNVFSCSVMHEALHNHYTQKSLSLSPGK is 4.7

Value of RIA for RIIIa (V158) reported for the binder Fc polypeptide variant 136D04a (Fcγ1, in vitro translated) (other, Fc region only, in vitro translated with 35S-methionine for RIA) AHTCPPCPAPELLGGPSVFLFPPKPKDTLMISRTPEVTCVVVDVSHEDPEVKFNWYVDGVEVHNAKTKPREEQYNSTYRVVSVLTVLHQDWLNGKEYKCKVSNKALPAPIEKIISKAKGQPREPQVYTLPPSREEMTKNQVSLTCLVKGFYPSDIAVEWESNGQPENNYKTTPPVLDSDGSFFLYSKLTVDMSRWQQGNVFSCSVMHEALHNHYTQKSLSLSRGK is 2.3

Value of RIA for RIIIa (V158) reported for the binder Fc polypeptide variant 135E07 (Fcγ1, in vitro translated) (other, Fc region only, in vitro translated with 35S-methionine for RIA) AYTCPPCSAPELLGGPSVFLFPPKPKDTLMISRTPEVTCVVVDVSHEDPEVKFNWYVDGVEVHNAKTKPREEQYNSTYRVVSVLTVLHQDWLNGKEYKCKASNKALPAPIDKTISRAKGQPREPQVYTLPPSREEMTKNQVCLTCLVKGFYPSDIAVEWESNGQPENNYKTTPPVLDSDGSFFLYSKLTVDKSRWQQGNVFSCSVMHEALHNHYTQKSLSLSPGK is 1.7

Value of RIA for RIIIa (V158) reported for the binder Fc polypeptide variant 135C09 (Fcγ1, in vitro translated) (other, Fc region only, in vitro translated with 35S-methionine for RIA) AHACPPCPAPELLGGPSVFLFPPKPKDTLMISRTPEVTCVVVDVSHEDPEVKFNWYVDGVEVHNAKTKPREEQYNSTYCVVGVLTVLHQNWLDGKEYKCKVSNKALPAPIEKTISKAKGQPREPQVYTSPPSREEMTKNQVSLTCLVKGFYPSDIAVEWESNGQPENNYKTTPPVLDSDGSFFLYSKLTVDKSRWQQGSVFSCSVMHEALHNHYTQKSLSLSPGK is 1.7
